Molecular target: human α-thrombin (Haematologic Technologies) (human), P00734
Experiment: thrombin inhibition; sulfated at Y32 and Y35
Settings: chains peptide; modification not given
measure: pKi
Value format note: pKi is -log10 of concentration (mol/L); just state the number.

Return pKi (reported value) for this binder: SEQ ID No:1 (MDL-2) DS (sulfated at Y32 and Y35) (peptide) YPESDSAKDDGNQEKEKALLVKVQERSDDGDYDEYDNDETTHTPDPSAPTARPRIREHQA
9.81
